# target-or-system: P2X7R (Homo sapiens)
# Sequence (Q99572 1-595): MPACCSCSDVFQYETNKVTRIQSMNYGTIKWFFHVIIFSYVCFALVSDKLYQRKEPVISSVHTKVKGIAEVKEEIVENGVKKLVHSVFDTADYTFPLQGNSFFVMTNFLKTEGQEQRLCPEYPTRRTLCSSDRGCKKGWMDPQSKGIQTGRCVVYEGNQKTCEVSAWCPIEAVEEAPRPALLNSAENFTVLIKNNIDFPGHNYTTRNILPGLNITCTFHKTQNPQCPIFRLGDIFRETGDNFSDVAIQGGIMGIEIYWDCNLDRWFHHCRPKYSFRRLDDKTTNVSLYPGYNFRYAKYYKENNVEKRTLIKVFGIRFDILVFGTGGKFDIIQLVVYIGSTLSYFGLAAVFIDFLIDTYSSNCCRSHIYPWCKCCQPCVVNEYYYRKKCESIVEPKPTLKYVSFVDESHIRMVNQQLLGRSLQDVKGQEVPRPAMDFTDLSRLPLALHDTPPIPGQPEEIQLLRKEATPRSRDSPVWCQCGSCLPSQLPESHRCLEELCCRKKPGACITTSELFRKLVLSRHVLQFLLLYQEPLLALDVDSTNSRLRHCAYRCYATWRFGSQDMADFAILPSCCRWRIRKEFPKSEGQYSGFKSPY
# experiment-description: inhibition of ATP-induced
# Format: cell-based
property-name: IC50
State the value with its unit after it.

Need IC50 of O=C1CSC(=O)N1C(CCc1ccncc1)COc1ccc(-c2cccc([N+](=O)[O-])c2)cc1 (stereo not shown) , thanks.
1.35 µM

###

# target-or-system: P2X7R (Homo sapiens, UniProt Q99572)
# Sequence (Q99572 1-595): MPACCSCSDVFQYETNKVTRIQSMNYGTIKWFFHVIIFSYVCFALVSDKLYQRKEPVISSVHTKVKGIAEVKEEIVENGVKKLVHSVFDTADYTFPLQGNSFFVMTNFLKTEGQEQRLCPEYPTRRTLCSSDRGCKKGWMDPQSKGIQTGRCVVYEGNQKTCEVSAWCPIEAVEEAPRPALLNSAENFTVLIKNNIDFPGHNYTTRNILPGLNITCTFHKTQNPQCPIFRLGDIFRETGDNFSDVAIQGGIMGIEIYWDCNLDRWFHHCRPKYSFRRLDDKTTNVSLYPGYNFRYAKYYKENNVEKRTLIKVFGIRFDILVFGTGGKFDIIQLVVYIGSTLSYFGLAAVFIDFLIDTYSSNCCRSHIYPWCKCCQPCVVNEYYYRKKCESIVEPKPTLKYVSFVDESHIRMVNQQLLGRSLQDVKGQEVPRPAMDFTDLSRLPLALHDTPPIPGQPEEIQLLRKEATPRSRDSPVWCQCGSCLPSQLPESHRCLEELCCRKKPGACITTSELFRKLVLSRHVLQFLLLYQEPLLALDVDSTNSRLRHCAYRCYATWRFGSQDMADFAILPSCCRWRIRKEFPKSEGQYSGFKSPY
# experiment-description: whole-cell patch clamp:[…] blocks […] ATP-evoked current
# Assay type: cell-based
property-name: pIC50
pIC50 (log units): -log10 of the concentration in mol/L.

Need pIC50 of `Clc1cccc(-c2nnnn2Cc2cccnc2)c1Cl` , thanks.
5.65

###

# target-or-system: P2X7R (Homo sapiens, UniProt Q99572)
# experiment-description: whole-cell patch clamp, concentration-dependent inward currents
property-name: pEC50
pEC50 (log units): -log10 of the concentration in mol/L.

Need pEC50 of Nc1ncnc2c1ncn2[C@@H]1O[C@H](COP(=O)(O)OP(=O)(O)OP(=O)(O)O)[C@@H](O)[C@H]1O [ATP] , thanks.
3.06
